assay: Induction in apoptosis in human L02 cells assessed as viable cells at 1 uM incubated for 24 hrs by Annexin V-FITC/Propidium Iodide staining based flow cytometry analysis (reference value: 92.75 %); type: toxicity, cell-based; details: read-out: Activity
EXPERIMENTAL_READOUT: viability at 24 h, 1 µM (%)
Respond numerically; units are % and should not be typed.

Give viability at 24 h, 1 µM for the following molecule: CN(C)C/C=C/C(=O)Nc1cc2c(Nc3ccc(F)c(Cl)c3)ncnc2cc1O[C@H]1CCOC1 [AFATINIB] 95.8

Give viability at 24 h, 1 µM for C=CC(=O)Nc1cc2c(Oc3ccc(NC(=O)n4c(=O)c(-c5ccccc5)c(C)n4C)cc3F)cccc2cc1OC 91.9

These entries and their values trace back to ChEMBL document CHEMBL5537122.
